All figures here come from patent US12097215B2.

- System: S. aureus ATCC 25923
- MEASUREMENT_NOTES: MIC by serial dilutions in broth (visible growth);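 also: broth tubes inoculated at about 5×10^5 CFU/ml, incubated 16-24 h at 35 °C in air, growth judged by transmitted light against an unexposed refrigerated inoculum tube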
- Format: cell-based
- CONDITION_LABEL: ^64Zne 0.011 mcg/ml
MEASUREMENT_KIND: visible growth

{"COMPOUND": "NC(CC(=O)O)C(=O)O (stereo not shown) [^64Zne aspartate]", "MEASURED_TARGET": "S. aureus ATCC 25923", "RESULT": "−"}
{"COMPOUND": "O=C([O-])CC(NCCNC(CC(=O)O)C(=O)O)C(=O)[O-].[64Zn+2] (stereo not shown)", "MEASURED_TARGET": "S. aureus ATCC 25923", "RESULT": "+"}
{"COMPOUND": "NC(CCC(=O)[O-])C(=O)[O-].[64Zn+2] (stereo not shown) [^64Zne glutamate]", "MEASURED_TARGET": "S. aureus ATCC 25923", "RESULT": "+"}
{"COMPOUND": "O=S(=O)([O-])[O-].[64Zn+2] [^64Zne sulfate]", "MEASURED_TARGET": "S. aureus ATCC 25923", "RESULT": "+"}
